Source of measurements: patent US20240141072A1

Below, each entry is listed with its recorded pKd.
assayed.system: T1, biotinylated human DLL3 protein expressed as a human IgG1 fusion protein (human, UniProt Q9NYJ7 27-492, limits assumed, biotinylated)
T1 sequence: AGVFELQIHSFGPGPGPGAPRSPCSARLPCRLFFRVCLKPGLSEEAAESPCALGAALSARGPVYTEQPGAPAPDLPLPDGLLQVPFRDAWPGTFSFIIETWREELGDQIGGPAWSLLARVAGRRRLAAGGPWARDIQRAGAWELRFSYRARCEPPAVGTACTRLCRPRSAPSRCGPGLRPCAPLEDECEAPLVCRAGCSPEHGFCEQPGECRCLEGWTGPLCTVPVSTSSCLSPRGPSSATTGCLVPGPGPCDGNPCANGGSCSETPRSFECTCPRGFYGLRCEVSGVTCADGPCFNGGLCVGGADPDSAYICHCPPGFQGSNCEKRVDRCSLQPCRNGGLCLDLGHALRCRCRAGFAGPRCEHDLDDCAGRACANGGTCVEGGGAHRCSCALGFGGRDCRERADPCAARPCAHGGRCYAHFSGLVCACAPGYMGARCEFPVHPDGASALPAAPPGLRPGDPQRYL
procedure.details: Octet BLI, 60/20/6.67/2.22 nM
// returns pKd (minus log10 of molar concentration), number only

Solved cases (3 shown):
binder: 3C04 anti-DLL3 trispecific protein (other, not shown: linker 1808, anti-albumin sdAb, linker 1808, anti-CD3 fragment, His6 1819) EVQLVESGGGLVQPGGSLTLSCAASGSHVSFLSMAWYRQAPGKKRELVAGISADGPTDYIDSVKGRFTISRDNAKNSVYLQMNSLRAEDTAVYYCYAYRWDTRYTYWGQGTLVTVSS
parameter: pKd
assay.value: 8.40

binder: 4D09 anti-DLL3 trispecific protein (other, not shown: linker 1808, anti-albumin sdAb, linker 1808, anti-CD3 fragment, His6 1819) EVQLVESGGGLVQPGGSLTLSCAASGSSVKFLSMAWYRQAPGKKRELVAGISADGSTDYILSVKGRFTISRDNAKNSVYLQMNSLRAEDTAVYYCYAYEWTTRYTYWGQGTLVTVSS
parameter: pKd
assay.value: 8.09

binder: 1A011 anti-DLL3 trispecific protein (other, also called 1A11; not shown: linker 1808, anti-albumin sdAb, linker 1808, anti-CD3 fragment, His6 1819) EVQLVESGGGLVQPGGSLTLSCVASGSTSSINAIGWYRRAPGKQRELVAGISSDGSKVYIDSVKGRFTISRDNAKNSVYLQMNSLRAEDTAVYYCYYFRTVSGSSYRYWGQGTLVTVSS
parameter: pKd
assay.value: 8.46

# ---- query binder ----
Ask: Need pKd of 2H02 anti-DLL3 trispecific protein (other, not shown: linker 1808, anti-albumin sdAb, linker 1808, anti-CD3 fragment, His6 1819) EVQLVESGGGLVQPGGSLTLSCVASGSTSSINAMAWYRRAPGKQRELAAGISSDGSKVYADSVKGRFTISRDNAKNSVYLQMNSLRAEDTAVYYCYYFHTVSGSSMRYWGQGTLVTVSS , thanks.
Reply: 8.36
